These entries and their values trace back to paper PMC11357638.

measured on: human TRPV3 (hTRPV3) channel (Homo sapiens, UniProt Q8NET8)
Construct: expressed in transfected cells; host or cells: HEK293T
Sequence (Q8NET8 whole entry): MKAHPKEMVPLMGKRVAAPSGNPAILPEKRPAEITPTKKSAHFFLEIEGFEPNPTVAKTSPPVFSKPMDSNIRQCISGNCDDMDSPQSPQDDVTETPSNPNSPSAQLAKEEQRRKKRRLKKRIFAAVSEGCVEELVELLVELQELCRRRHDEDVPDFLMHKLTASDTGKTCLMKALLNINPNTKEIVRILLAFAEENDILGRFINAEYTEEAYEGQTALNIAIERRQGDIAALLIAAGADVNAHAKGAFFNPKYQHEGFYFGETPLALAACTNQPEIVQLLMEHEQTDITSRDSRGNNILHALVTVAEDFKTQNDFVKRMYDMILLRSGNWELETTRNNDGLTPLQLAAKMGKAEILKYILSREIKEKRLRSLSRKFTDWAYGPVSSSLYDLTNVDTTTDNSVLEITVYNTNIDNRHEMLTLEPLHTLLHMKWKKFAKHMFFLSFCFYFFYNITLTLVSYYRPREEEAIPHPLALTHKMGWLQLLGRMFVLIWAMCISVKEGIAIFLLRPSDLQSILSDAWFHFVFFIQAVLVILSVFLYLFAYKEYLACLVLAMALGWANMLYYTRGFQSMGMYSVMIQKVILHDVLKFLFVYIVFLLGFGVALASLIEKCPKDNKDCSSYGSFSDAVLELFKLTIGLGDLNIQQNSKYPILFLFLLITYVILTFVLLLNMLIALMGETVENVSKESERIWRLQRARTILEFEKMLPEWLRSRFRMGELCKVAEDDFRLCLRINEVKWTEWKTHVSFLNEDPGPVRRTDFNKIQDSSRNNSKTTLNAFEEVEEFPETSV
assay protocol: Whole-cell patch-clamp of hTRPV3 currents in transfected HEK293T cells
Assay type: cell-based
settings: WT hTRPV3 in HEK293T, whole-cell, activated by 50 μM 2-APB, at +80 mV, Hill fit, mean ± SD; read-out: IC50, inhibition of hTRPV3 currents
observed property: IC50 (µM)

compound | observed property | result number
COC(=O)/C=C/c1ccc(O)c(O)c1 [CAMC, caffeic acid methyl caffeate] | IC50 | 410
